tested on: CCRF-CEM; test: Growth inhibition of human CCRF-CEM cells incubated for 48 hrs by sulforhodamine B assay; assay type: functional
quantityName: log10(GI50) (log10 of the value in nM)
Heads up, the numbers here are log10 of GI50 in nM units.

As a guide, the following entries are already answered.
>>> measuredresult("C=C1C(=O)O[C@@H]2[C@H]3O[C@]3(C)CC/C=C(/COC(=O)CCCc3c[nH]c4ccccc34)CC[C@@H]12")
2.88
>>> measuredresult("C=C1C(=O)O[C@@H]2[C@H]3O[C@]3(C)CC/C=C(/COC(=O)c3cc4cc(OC)ccc4[nH]3)CC[C@@H]12")
2.53
>>> measuredresult("C=C1C(=O)O[C@@H]2[C@H]3O[C@]3(C)CC/C=C(/COC(=O)c3cc4ccccc4s3)CC[C@@H]12")
2.60

# input Suppose we examine the compound C=C1C(=O)O[C@@H]2[C@H]3O[C@]3(C)CC/C=C(/COC(=O)c3cn(C)c4ccccc34)CC[C@@H]12 ; what log10(GI50) value has been reported?
# output 2.32

# input Need log10(GI50), item CN(C)CC1C(=O)O[C@@H]2[C@H]3O[C@]3(C)CC/C=C(/COC(=O)c3cc4ccccc4[nH]3)CC[C@@H]12.O=C(O)/C=C/C(=O)O (some centres not stated)
# output 2.51

# input Field request: log10(GI50) | item: C=C1C(=O)O[C@@H]2[C@H]3O[C@]3(C)CC/C=C(/COC(=O)c3cc4cc(Cl)ccc4[nH]3)CC[C@@H]12
# output 2.59

# input Any idea what its log10(GI50) is? The compound is C=C1C(=O)O[C@@H]2[C@H]3O[C@]3(C)CC/C=C(/COC(=O)/C=C/c3c[nH]c4ccccc34)CC[C@@H]12
# output 1.85
